Target: 2-5A-dependent ribonuclease (Homo sapiens) (UniProt Q05823)
Sequence (whole entry): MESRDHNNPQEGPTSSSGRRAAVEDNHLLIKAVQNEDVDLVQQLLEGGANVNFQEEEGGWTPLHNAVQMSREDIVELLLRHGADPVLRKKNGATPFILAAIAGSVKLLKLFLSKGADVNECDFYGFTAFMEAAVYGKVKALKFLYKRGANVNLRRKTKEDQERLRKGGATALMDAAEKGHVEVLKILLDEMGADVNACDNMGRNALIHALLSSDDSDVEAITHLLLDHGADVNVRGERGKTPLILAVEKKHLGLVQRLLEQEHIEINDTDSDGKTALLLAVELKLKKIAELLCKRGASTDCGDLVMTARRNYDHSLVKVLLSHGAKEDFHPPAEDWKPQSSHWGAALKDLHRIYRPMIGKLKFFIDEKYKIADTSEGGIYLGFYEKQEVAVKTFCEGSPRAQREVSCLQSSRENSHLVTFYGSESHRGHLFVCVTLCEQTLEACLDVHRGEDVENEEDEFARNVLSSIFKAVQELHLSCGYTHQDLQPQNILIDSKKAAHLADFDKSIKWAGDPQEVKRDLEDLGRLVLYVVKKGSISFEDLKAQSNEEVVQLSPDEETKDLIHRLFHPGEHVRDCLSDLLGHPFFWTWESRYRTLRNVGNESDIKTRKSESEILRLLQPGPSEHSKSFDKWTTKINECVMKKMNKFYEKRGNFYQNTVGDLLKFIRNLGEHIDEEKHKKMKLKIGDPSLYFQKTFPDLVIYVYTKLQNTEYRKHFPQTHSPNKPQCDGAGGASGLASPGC
Experiment: Antagonist activity at human RNase L expressed in Escherichia coli BL21 (DE3) cells assessed as RNA cleavage using Cy5-C11-rUU-C7-BHQ2 as substrate by FRET assay in presence of natural activator pAAAA
Format: functional
Calls of active or inactive are those of the source. The rule behind the calls is not given here.
Measured Metric: inhibition

Nc1ncnc2c1ncn2[C@@H]1O[C@H](COCP(=O)(O)O[C@H]2[C@H](O)[C@@H](COCP(=O)(O)O[C@@H]3[C@H](O)[C@@H](COP(=O)(O)O[C@@H]4[C@H](O)[C@@H](COP(=O)(O)O)O[C@H]4n4cnc5c(N)ncnc54)O[C@H]3n3cnc4c(N)ncnc43)O[C@H]2n2cnc3c(N)ncnc32)[C@@H](O)[C@@H]1O    inactive
Nc1ncnc2c1ncn2[C@@H]1O[C@H](COP(=O)(O)O[C@H]2[C@H](O)[C@@H](COCP(=O)(O)O[C@H]3[C@H](O)[C@@H](COCP(=O)(O)O[C@H]4[C@H](O)[C@@H](COCP(=O)(O)O)O[C@H]4n4cnc5c(N)ncnc54)O[C@H]3n3cnc4c(N)ncnc43)O[C@H]2n2cnc3c(N)ncnc32)[C@@H](O)[C@H]1O    inactive
Nc1ncnc2c1ncn2[C@@H]1O[C@H](COCP(=O)(O)O[C@@H]2[C@H](O)[C@@H](COP(=O)(O)O[C@@H]3[C@@H](O)[C@@H](COCP(=O)(O)O[C@@H]4[C@H](O)[C@@H](COP(=O)(O)O)O[C@H]4n4cnc5c(N)ncnc54)O[C@H]3n3cnc4c(N)ncnc43)O[C@H]2n2cnc3c(N)ncnc32)[C@H](O)[C@H]1O    inactive

* * *

Target: 2-5A-dependent ribonuclease (Homo sapiens) (UniProt Q05823)
Experiment: Activation of human RNase L expressed in Escherichia coli BL21 (DE3) cells assessed as RNA cleavage using Cy5-rC11-UU-C7-BHQ2 as substrate by FRET assay
Active and inactive are the calls of the source. The rule behind the calls is not given here.
Parameter call: string, one of yes (1) for active, no (0) for inactive

Nc1ncnc2c1ncn2[C@@H]1O[C@H](COP(=O)(O)O[C@@H]2[C@H](O)[C@@H](COCP(=O)(O)O[C@@H]3[C@H](O)[C@@H](COP(=O)(O)O[C@@H]4[C@H](O)[C@@H](COP(=O)(O)O)O[C@H]4n4cnc5c(N)ncnc54)O[C@H]3n3cnc4c(N)ncnc43)O[C@H]2n2cnc3c(N)ncnc32)[C@@H](O)[C@H]1O    no (0)

Switching to the query record.
Just curious, what result did Nc1ncnc2c1ncn2[C@@H]1O[C@H](COCP(=O)(O)O[C@@H]2[C@H](O)[C@@H](COP(=O)(O)O[C@@H]3[C@H](O)[C@@H](COP(=O)(O)O[C@@H]4[C@H](O)[C@@H](COP(=O)(O)O)O[C@H]4n4cnc5c(N)ncnc54)O[C@H]3n3cnc4c(N)ncnc43)O[C@H]2n2cnc3c(N)ncnc32)[C@@H](O)[C@@H]1O get here?
yes (1)

* * *

Biological target: 2-5A-dependent ribonuclease (Homo sapiens)
Sequence (whole entry): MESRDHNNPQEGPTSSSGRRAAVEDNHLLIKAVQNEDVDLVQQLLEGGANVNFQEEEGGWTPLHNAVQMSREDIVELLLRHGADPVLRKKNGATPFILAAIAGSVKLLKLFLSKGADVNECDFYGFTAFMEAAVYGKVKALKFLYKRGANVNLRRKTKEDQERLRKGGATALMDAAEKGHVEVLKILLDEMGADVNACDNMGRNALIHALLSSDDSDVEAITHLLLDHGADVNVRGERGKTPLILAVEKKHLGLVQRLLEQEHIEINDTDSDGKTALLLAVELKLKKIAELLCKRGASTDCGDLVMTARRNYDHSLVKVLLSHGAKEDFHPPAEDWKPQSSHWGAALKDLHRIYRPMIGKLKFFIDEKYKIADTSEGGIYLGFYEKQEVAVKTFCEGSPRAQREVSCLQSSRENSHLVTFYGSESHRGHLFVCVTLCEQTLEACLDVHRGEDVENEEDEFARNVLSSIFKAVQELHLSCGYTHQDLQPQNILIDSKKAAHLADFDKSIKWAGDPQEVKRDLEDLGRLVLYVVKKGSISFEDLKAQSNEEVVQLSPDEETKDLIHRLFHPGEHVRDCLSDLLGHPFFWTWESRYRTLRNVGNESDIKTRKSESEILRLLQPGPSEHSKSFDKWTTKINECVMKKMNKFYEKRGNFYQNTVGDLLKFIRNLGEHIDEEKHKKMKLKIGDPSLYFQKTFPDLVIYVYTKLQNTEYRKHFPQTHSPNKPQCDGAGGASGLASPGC
Assay: Antagonist activity at human RNase L expressed in Escherichia coli BL21 (DE3) cells assessed as RNA cleavage using Cy5-C11-rUU-C7-BHQ2 as substrate by FRET assay in presence of natural activator pAAAA
Assay type: functional
Activity calls are given as the source filed them. The calls are words filed in the database; no cut-off is given here.
Measured Metric: inhibition

Nc1ncnc2c1ncn2[C@@H]1O[C@H](COP(=O)(O)O[C@@H]2[C@@H](O)[C@@H](COCP(=O)(O)O[C@@H]3[C@H](O)[C@@H](COP(=O)(O)O[C@@H]4[C@@H](O)[C@@H](COCP(=O)(O)O)O[C@H]4n4cnc5c(N)ncnc54)O[C@H]3n3cnc4c(N)ncnc43)O[C@H]2n2cnc3c(N)ncnc32)[C@@H](O)[C@H]1O    inactive
Nc1ncnc2c1ncn2[C@@H]1O[C@H](COP(=O)(O)O[C@@H]2[C@H](O)[C@@H](COCP(=O)(O)O[C@@H]3[C@H](O)[C@@H](COP(=O)(O)O[C@@H]4[C@H](O)[C@@H](COCP(=O)(O)O)O[C@H]4n4cnc5c(N)ncnc54)O[C@H]3n3cnc4c(N)ncnc43)O[C@H]2n2cnc3c(N)ncnc32)[C@@H](O)[C@H]1O    inactive

* * *

Molecular target: 2-5A-dependent ribonuclease (Homo sapiens, UniProt Q05823)
Sequence (Q05823 whole entry): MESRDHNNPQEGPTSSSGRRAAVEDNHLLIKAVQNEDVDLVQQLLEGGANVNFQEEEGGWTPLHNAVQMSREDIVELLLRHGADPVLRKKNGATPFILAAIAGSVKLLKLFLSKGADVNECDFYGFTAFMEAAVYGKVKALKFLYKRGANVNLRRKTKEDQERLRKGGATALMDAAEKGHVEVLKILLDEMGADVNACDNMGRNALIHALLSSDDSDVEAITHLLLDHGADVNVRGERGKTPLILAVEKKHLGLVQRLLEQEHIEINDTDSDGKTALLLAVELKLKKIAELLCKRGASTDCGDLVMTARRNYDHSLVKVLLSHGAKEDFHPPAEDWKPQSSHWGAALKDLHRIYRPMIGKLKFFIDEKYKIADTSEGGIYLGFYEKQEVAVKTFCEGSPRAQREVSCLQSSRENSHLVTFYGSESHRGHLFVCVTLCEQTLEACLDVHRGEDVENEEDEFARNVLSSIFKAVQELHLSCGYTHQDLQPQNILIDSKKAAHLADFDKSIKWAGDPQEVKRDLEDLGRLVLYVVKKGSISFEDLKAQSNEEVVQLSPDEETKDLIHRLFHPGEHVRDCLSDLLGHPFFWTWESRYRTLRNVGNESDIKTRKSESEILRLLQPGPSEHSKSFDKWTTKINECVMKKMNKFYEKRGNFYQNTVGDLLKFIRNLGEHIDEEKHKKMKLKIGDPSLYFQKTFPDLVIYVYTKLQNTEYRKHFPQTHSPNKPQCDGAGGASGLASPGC
Test: Activation of human RNase L expressed in Escherichia coli BL21 (DE3) cells assessed as RNA cleavage using Cy5-rC11-UU-C7-BHQ2 as substrate by FRET assay
Measured Metric: EC50

In the examples that follow, each entry is paired with its recorded EC50.
Nc1ncnc2c1ncn2[C@@H]1O[C@H](COP(=O)(O)O[C@@H]2[C@H](O)[C@@H](COP(=O)(O)O[C@@H]3[C@H](O)[C@@H](COP(=O)(O)CO[C@@H]4[C@@H](O)[C@@H](COP(=O)(O)O)O[C@H]4n4cnc5c(N)ncnc54)O[C@H]3n3cnc4c(N)ncnc43)O[C@H]2n2cnc3c(N)ncnc32)[C@@H](O)[C@H]1O    300 nM
Nc1ncnc2c1ncn2[C@@H]1O[C@H](COP(=O)(O)O[C@@H]2[C@H](O)[C@@H](COP(=O)(O)O[C@H]3[C@H](O)[C@@H](COCP(=O)(O)O[C@@H]4[C@H](O)[C@@H](COP(=O)(O)O)O[C@H]4n4cnc5c(N)ncnc54)O[C@H]3n3cnc4c(N)ncnc43)O[C@H]2n2cnc3c(N)ncnc32)[C@@H](O)[C@H]1O    > 1000 nM

Okay, next one:
# input molecule: Nc1ncnc2c1ncn2[C@@H]1O[C@H](COP(=O)(O)O[C@@H]2[C@H](O)[C@@H](COP(=O)(O)O[C@@H]3[C@H](O)[C@@H](COP(=O)(O)O[C@@H]4[C@H](O)[C@@H](COP(=O)(O)O)O[C@H]4n4cnc5c(N)ncnc54)O[C@H]3n3cnc4c(N)ncnc43)O[C@H]2n2cnc3c(N)ncnc32)[C@@H](O)[C@H]1O ; wanted: its EC50
17 nM
